# assay.name: NCI Yeast Anticancer Drug Screen. Data for the cln2 rad14 strain (AID 165)
# experimental.context: S. cerevisiae cln2 rad14 strain, at 50.0 µM
Compounds without any hit were thinned out: in the full panel of roughly 79,000, 15% have a hit. The source made the active and inactive calls. No stated cut-off is given here; in the data, active means growth inhibition above about 70%; inactive means the rest.
Valid outcomes are listed here; reply with one: active, inactive

{"compound": "CCOc1c(Br)cc(N=Cc2ccc(N(CCCl)CCCl)c(OC)c2)cc1Br", "assigned.class": "inactive"}
{"compound": "CCCCN1CCC2(CC1)COCc1ccccc12", "assigned.class": "inactive"}
{"compound": "CC1C/C(=C\\N=[N+]=[N-])C(=O)O1 (configuration not stated)", "assigned.class": "inactive"}

Moving on to the next compound.
# outcome recorded in this test, key = COc1cc(-c2[nH]ccc2Cl)oc1C1=C2N=C3C=C2C(C(C)C)C1CCCCCCCC3 (configuration not stated)
active
